Experiment: Photostability of the UV filter in highly diluted ethanol solution under irradiation, analysed by UV spectroscopy
Assay type: physicochemical
Settings: first order kinetic fit, half-life under COLIPA standard sun irradiation
Reported metric: Half time (h)

- CCOC(=O)/C(=C\c1ccc(N(CC)CC)cc1)P(=O)(OCC)OCC [Compound P-3]: 320
- CCOC(=O)/C(=C\c1cc(OC)c(O)c(OC)c1)P(=O)(OCC)OCC [Compound P-4]: 100
- CCOP(=O)(OCC)C(=Cc1ccc(-c2ccccc2)cc1)P(=O)(OCC)OCC [Compound P-5]: 7
- CCOC(=O)/C(=C\c1ccc(-c2ccc(/C=C(\C(=O)OCC)P(=O)(OCC)OCC)cc2)cc1)P(=O)(OCC)OCC [Compound P-19]: 220.6
- CCOC(=O)/C(=C\c1ccc(-c2ccccc2)cc1)P(=O)(OCC)OCC [Compound P-7]: 466.6
- CCOC(=O)C(=C1c2ccccc2-c2ccccc21)P(=O)(OCC)OCC [Compound P-20]: 449.2
- CCOP(=O)(OCC)C(=Cc1ccc(OC)cc1)P(=O)(OCC)OCC [Compound P-6]: 11285
- CCOC(=O)/C(=C\c1ccc(/C=C(\C(=O)OCC)P(=O)(OCC)OCC)cc1)P(=O)(OCC)OCC [Compound P-2]: 172
- CCOC(=O)/C(=C\c1ccc(NC(C)=O)cc1)P(=O)(OCC)OCC [Compound P-17]: 947.6
- CCOC(=O)/C(=C\c1cc(OC)c(OC)c(OC)c1)P(=O)(OCC)OCC [Compound P-22]: 262.8

###

Examples of compounds with documented Absorption maximum λmax follow.
Experiment: UV shielding properties: UV spectra in ethanol (absorption maximum, A1%1cm)
Type: physicochemical
Parameters: unit not given here
Details: UV spectra in ethanol
Reported metric: Absorption maximum λmax

- CCOC(=O)/C(=C\c1ccc(-c2ccc(/C=C(\C(=O)OCC)P(=O)(OCC)OCC)cc2)cc1)P(=O)(OCC)OCC [Compound P-19]: 324
- CCOC(=O)/C(=C\c1cc(OC)c(OC)c(OC)c1)P(=O)(OCC)OCC [Compound P-22]: 299
- CCOC(=O)/C(=C\c1ccc(-c2ccccc2)cc1)P(=O)(OCC)OCC [Compound P-7]: 302
- CCOC(=O)/C(=C\c1ccc(N(CC)CC)cc1)P(=O)(OCC)OCC [Compound P-3]: 366

###

Experiment: UV shielding properties: UV spectra in ethanol (absorption maximum, A1%1cm)
Type: physicochemical
Conditions: UV spectra in ethanol, at the absorption maximum
Examples of molecules with documented A^1%1 cm follow.
Reported metric: A^1%1 cm

* CCOC(=O)/C(=C\c1ccc(O)c(OC)c1)P(=O)(OCC)OCC [Compound P-21] | 429
* CCOC(=O)/C(=C\c1ccc(/C=C(\C(=O)OCC)P(=O)(OCC)OCC)cc1)P(=O)(OCC)OCC [Compound P-2] | 500
* CCOC(=O)/C(=C\c1cc(OC)c(O)c(OC)c1)P(=O)(OCC)OCC [Compound P-4] | 390
* CCOP(=O)(OCC)C(=Cc1ccc(OC)cc1)P(=O)(OCC)OCC [Compound P-6] | 575

###

Assay: UV shielding properties: UV spectra in ethanol (absorption maximum, A1%1cm)
Type: physicochemical
Details: UV spectra in ethanol, at the absorption maximum
Examples of molecules with documented A^1%1 cm follow.
Reported metric: A^1%1 cm

* CCOC(=O)/C(=C\c1ccc(-c2ccccc2)cc1)P(=O)(OCC)OCC [Compound P-7] | 650
* CCOC(=O)C(=C1c2ccccc2-c2ccccc21)P(=O)(OCC)OCC [Compound P-20] | 371
* CCOC(=O)/C(=C\c1ccc(OC)cc1)P(=O)(OCC)OCC [Compound P-1] | 519
* CCOC(=O)/C(=C\c1ccc(N(CC)CC)cc1)P(=O)(OCC)OCC [Compound P-3] | 624
* CCOC(=O)/C(=C\c1cc(OC)c(OC)c(OC)c1)P(=O)(OCC)OCC [Compound P-22] | 357
* CCOP(=O)(OCC)C(=Cc1ccc(-c2ccccc2)cc1)P(=O)(OCC)OCC [Compound P-5] | 427
* CCOC(=O)/C(=C\c1ccc(-c2ccc(/C=C(\C(=O)OCC)P(=O)(OCC)OCC)cc2)cc1)P(=O)(OCC)OCC [Compound P-19] | 733
* CCOC(=O)/C(=C\c1ccc(NC(C)=O)cc1)P(=O)(OCC)OCC [Compound P-17] | 604

Values were extracted from patent US8529877B2.
